- assay notes: Stability of compound at pH 1.5 assessed as change in purity at 1 mg/ml incubated for 4 hrs by HPLC analysis
- Format: physicochemical
- experimental parameters: buffer, pH 1.5, 4 h
Answer each item with its documented Activity.
Give bare numbers, in %.

// below: answered compounds
{"chem smiles": "CC(C)C(=O)OC[C@@]1(F)O[C@@H](n2ccc(=O)n(COC(=O)[C@@H](N)C(C)C)c2=O)[C@H](OC(=O)C(C)C)[C@@H]1OC(=O)C(C)C.Cl", "result type": "Activity", "unit tag": "%", "reported measurement": -0.9}
{"chem smiles": "CC(C)C(=O)OC[C@@]1(F)O[C@@H](n2ccc(=O)n(COC(=O)[C@@H]3CCCN3C)c2=O)[C@H](OC(=O)C(C)C)[C@@H]1OC(=O)C(C)C.Cl", "result type": "Activity", "unit tag": "%", "reported measurement": -1.5}
{"chem smiles": "CC(C)C(=O)O[C@H]1[C@H](n2ccc(=O)n(COC(=O)c3cccnc3)c2=O)O[C@](F)(COC(=O)c2cccnc2)[C@H]1OC(=O)C(C)C", "result type": "Activity", "unit tag": "%", "reported measurement": -2.8}

Now let's try a different one.
## Input Dear colleague, I am looking for the recorded Activity of the following compound: CC(=O)OC[C@@]1(F)O[C@@H](n2ccc(=O)n(COC(=O)c3cccnc3)c2=O)[C@H](OC(C)=O)[C@@H]1OC(C)=O
## Output -3

====

- assay notes: Stability of compound at pH 6.8 assessed as change in purity at 1 mg/ml incubated for 24 hrs by HPLC analysis
- Format: physicochemical
- experimental parameters: buffer, pH 6.8, 24 h
result type: Activity
Just so you know, I need the unit written after the number.

Would you be so kind as to report Activity for each listed record?
1. O=c1ccn([C@@H]2O[C@](F)(CO)[C@@H](O)[C@H]2O)c(=O)[nH]1
2. CCC(=O)OC[C@@]1(F)O[C@@H](n2ccc(=O)n(COC(=O)c3cccnc3)c2=O)[C@H](OC(=O)CC)[C@@H]1OC(=O)CC
3. CC(=O)O[C@H]1[C@H](n2ccc(=O)n(COC(=O)c3cccnc3)c2=O)O[C@](F)(COC(=O)C(C)C)[C@H]1OC(C)=O

## Output
-67.1%
-9.7%
-31%

Give measured Activity for every item shown.
1. CC(C)C(=O)OC[C@@]1(F)O[C@@H](n2ccc(=O)n(COC(=O)c3cccnc3)c2=O)[C@H](OC(=O)C(C)C)[C@@H]1OC(=O)C(C)C
2. CC(C)C(=O)O[C@H]1[C@H](n2ccc(=O)n(COC(=O)c3cccnc3)c2=O)O[C@](F)(COC(=O)c2cccnc2)[C@H]1OC(=O)C(C)C

## Output
-0.6%
-15.9%

====

- assay notes: Stability of compound at pH 1.5 assessed as change in purity at 1 mg/ml incubated for 24 hrs by HPLC analysis
- Type: physicochemical
- experimental parameters: buffer, pH 1.5, 24 h
For each record, write down the corresponding Activity.
Answers are plain numbers, in %.

Below: 3 compounds and their reported Activity.
{"chem smiles": "CCC(=O)OC[C@@]1(F)O[C@@H](n2ccc(=O)n(COC(=O)c3cccnc3)c2=O)[C@H](OC(=O)CC)[C@@H]1OC(=O)CC", "result type": "Activity", "reported measurement": -9.8}
{"chem smiles": "CC(=O)O[C@H]1[C@H](n2ccc(=O)n(COC(=O)c3cccnc3)c2=O)O[C@](F)(COC(=O)C(C)C)[C@H]1OC(C)=O", "result type": "Activity", "reported measurement": -10.4}
{"chem smiles": "CC(C)C(=O)OC[C@@]1(F)O[C@@H](n2ccc(=O)n(COC(=O)[C@@H](N)C(C)C)c2=O)[C@H](OC(=O)C(C)C)[C@@H]1OC(=O)C(C)C.Cl", "result type": "Activity", "reported measurement": -5.2}

// input: 5 compounds below; output: Activity for each
1. CC(C)C(=O)OCn1c(=O)ccn([C@@H]2O[C@](F)(COC(=O)C(C)C)[C@@H](O)[C@H]2O)c1=O
2. CC(C)C(=O)OC[C@@]1(F)O[C@@H](n2ccc(=O)n(COC(=O)c3cccnc3)c2=O)[C@H](OC(=O)C(C)C)[C@@H]1OC(=O)C(C)C
3. CC(C)C(=O)OC[C@@]1(F)O[C@@H](n2ccc(=O)n(COC(=O)c3cccnc3)c2=O)[C@@H]2OC(=O)O[C@@H]21
4. CC(C)C(=O)O[C@H]1[C@H](n2ccc(=O)n(COC(=O)c3cccnc3)c2=O)O[C@](F)(COC(=O)c2cccnc2)[C@H]1OC(=O)C(C)C
5. CC(C)C(=O)OC[C@@]1(F)O[C@@H](n2ccc(=O)n(COC(=O)[C@@H]3CCCN3)c2=O)[C@H](OC(=O)C(C)C)[C@@H]1OC(=O)C(C)C.Cl

## Output
[-11.2, -9.2, -9.5, -7.8, -7.9]

All figures here come from ChEMBL document CHEMBL6177980.
